Target: T1, human CD19 (human, UniProt P15391 20-556)
T1 construct: also called B-cell surface antigen B4; B-cell antigen CD19
T1 sequence: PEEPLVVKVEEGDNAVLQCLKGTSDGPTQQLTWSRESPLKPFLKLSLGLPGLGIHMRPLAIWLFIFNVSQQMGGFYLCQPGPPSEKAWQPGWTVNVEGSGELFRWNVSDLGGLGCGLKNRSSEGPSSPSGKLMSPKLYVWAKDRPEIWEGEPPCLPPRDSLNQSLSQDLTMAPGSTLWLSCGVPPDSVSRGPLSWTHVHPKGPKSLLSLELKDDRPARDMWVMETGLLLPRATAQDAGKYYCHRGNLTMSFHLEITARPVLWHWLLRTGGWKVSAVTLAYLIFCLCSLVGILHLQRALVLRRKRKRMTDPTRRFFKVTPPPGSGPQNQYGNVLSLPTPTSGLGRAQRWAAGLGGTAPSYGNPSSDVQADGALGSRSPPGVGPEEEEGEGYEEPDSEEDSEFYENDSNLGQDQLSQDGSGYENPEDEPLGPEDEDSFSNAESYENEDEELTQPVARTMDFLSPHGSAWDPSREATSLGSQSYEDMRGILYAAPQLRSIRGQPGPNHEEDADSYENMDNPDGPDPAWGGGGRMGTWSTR
Experiment: binding affinity relative to the parent H1L1 mAb (Example 5); assay and format not named on the sheet
Each entry below carries its recorded Fold change binding.
Write down the numeric answer in fold and omit the unit.

H1.192 / L1.154 (antibody, V domains shown, vs H1L1 (Kabat): VH T57P/S100cT; VL L27cQ/S27eV/A55N/F96N; also called 4G7 H1.192_L1.154) VH: EVQLVESGGGLVKPGGSLKLSCAASGYTFTSYVMHWVRQAPGKGLEWIGYINPYNDGPKYNEKFQGRVTISSDKSISTAYMELSSLRSEDTAMYYCARGTYYYGTRVFDYWGQGTLVTVSS VL: DIVMTQSPATLSLSPGERATLSCRSSKSLQNVNGNTYLYWFQQKPGQSPQLLIYRMSNLNSGVPDRFSGSGSGTEFTLTISSLEPEDFAVYYCMQHLEYPNTFGAGTKLEIK	5.12
H1.191 / L1.155 (antibody, V domains shown, vs H1L1 (Kabat): VH K58E/S100cT; VL L27cQ/S27eV/A55N/F96I; also called 4G7 H1.191_L1.155) VH: EVQLVESGGGLVKPGGSLKLSCAASGYTFTSYVMHWVRQAPGKGLEWIGYINPYNDGTEYNEKFQGRVTISSDKSISTAYMELSSLRSEDTAMYYCARGTYYYGTRVFDYWGQGTLVTVSS VL: DIVMTQSPATLSLSPGERATLSCRSSKSLQNVNGNTYLYWFQQKPGQSPQLLIYRMSNLNSGVPDRFSGSGSGTEFTLTISSLEPEDFAVYYCMQHLEYPITFGAGTKLEIK	4.56

Turning now to a further binder:
Fill blank: measured Fold change binding of the binder H1.203 / L1.155 (antibody, V domains shown, vs H1L1 (Kabat): VH D55S/K58E/S100cT; VL L27cQ/S27eV/A55N/F96I; also called 4G7 H1.203_L1.155) VH: EVQLVESGGGLVKPGGSLKLSCAASGYTFTSYVMHWVRQAPGKGLEWIGYINPYNSGTEYNEKFQGRVTISSDKSISTAYMELSSLRSEDTAMYYCARGTYYYGTRVFDYWGQGTLVTVSS VL: DIVMTQSPATLSLSPGERATLSCRSSKSLQNVNGNTYLYWFQQKPGQSPQLLIYRMSNLNSGVPDRFSGSGSGTEFTLTISSLEPEDFAVYYCMQHLEYPITFGAGTKLEIK is ____. 4.73
